- System: rat small intestine tissue
- testName: Relaxation of rat small intestine (ileum) segments
- Parameters: concentration or dose not given beside the values
- runConditions: integral of nifedipine-sensitive force, 30 min post-compound addition
Assign labels as follows, please: criterion met for % Inhibition of force (RSI strips) below 50%; criterion not met for % Inhibition of force (RSI strips) equal to or exceeding 50%.

{"compound": "CN1CCN(CC(=O)Nc2ccc(Sc3c(-c4cc(Cl)ccc4O)c4cc(C(F)(F)F)ccc4[nH]c3=O)cc2)CC1 [Example 2]", "testTarget": "rat small intestine tissue", "category": "criterion met"}
{"compound": "CN(C)C1CCN(CC(=O)Nc2ccc(Sc3c(-c4cc(Cl)ccc4O)c4cc(C(F)(F)F)ccc4[nH]c3=O)cc2)CC1 [Example 10]", "testTarget": "rat small intestine tissue", "category": "criterion not met"}
{"compound": "CN(C)CCN(C)CC(=O)Nc1ccc(Sc2c(-c3cc(Cl)ccc3O)c3cc(C(F)(F)F)ccc3[nH]c2=O)cc1 [Example 7]", "testTarget": "rat small intestine tissue", "category": "criterion met"}
{"compound": "O=C(CCCN1CCCC1)Nc1ccc(Sc2c(-c3cc(Cl)ccc3O)c3cc(C(F)(F)F)ccc3[nH]c2=O)cc1 [Example 5]", "testTarget": "rat small intestine tissue", "category": "criterion not met"}
{"compound": "CN1CCN(CCC(=O)Nc2ccc(Sc3c(-c4cc(Cl)ccc4O)c4cc(C(F)(F)F)ccc4[nH]c3=O)cc2)CC1 [Example 11]", "testTarget": "rat small intestine tissue", "category": "criterion not met"}
{"compound": "O=C(CCN1CCC(N2CCCCC2)CC1)Nc1ccc(Sc2c(-c3cc(Cl)ccc3O)c3cc(C(F)(F)F)ccc3[nH]c2=O)cc1 [Example 13]", "testTarget": "rat small intestine tissue", "category": "criterion not met"}
{"compound": "O=C(CCN1CCN(c2ccccn2)CC1)Nc1ccc(Sc2c(-c3cc(Cl)ccc3O)c3cc(C(F)(F)F)ccc3[nH]c2=O)cc1 [Example 14]", "testTarget": "rat small intestine tissue", "category": "criterion met"}
